Recorded pEC50, one value per entry.
- Species: Rattus norvegicus
- experiment: H3 agonistic activity against K+ induced histamine in slices of rat brain cortex.
- Assay type: functional
- condition description: Rattus norvegicus
Answer as the number alone; pEC50 is minus log10 of concentration in mol/L.

molecule	measured metric	test value
CC(N)C(C)c1c[nH]cn1 (centres undefined)	pEC50	7.92
Br.Br.C[C@H](N)[C@H](C)c1c[nH]cn1	pEC50	8.47
C[C@H](N)[C@@H](C)c1c[nH]cn1 (relative stereo)	pEC50	8.21

// pEC50 value for `Br.Br.C[C@@H](N)[C@@H](C)c1c[nH]cn1` : 6.46
